Tested on: ACHN
EXPERIMENT SUMMARY: Growth inhibition of human ACHN cells assessed as cell growth at 10^-5 M incubated for 48 hrs by sulforhodamine B assay relative to control
Type: functional
REPORTED CONDITIONS: read-out: Activity
Please provide measured growth at 10 µM for the entries that follow.
# number only, unit % dropped from output

Qu. Please give the measured growth at 10 µM for this molecule: Cc1ccc(S(=O)(=O)N2CCc3c([nH]c4ccccc34)C2c2ccc(C=O)cc2)cc1 (stereo unspecified)
Ans. 79.1

Qu. Please give the measured growth at 10 µM for this molecule: Cc1n[nH]c2c1C(c1ccc(C3NCCc4c3[nH]c3ccccc43)cc1)C(C#N)=C(N)O2 (stereo unspecified)
Ans. 83.5

Qu. Please give the measured growth at 10 µM for this molecule: c1ccc2[nH]c(-c3ccc(C4NCCc5c4[nH]c4ccccc54)cc3)nc2c1 (stereo unspecified)
Ans. 102

Qu. Please give the measured growth at 10 µM for this molecule: O=Cc1ccc(C2NCCc3c2[nH]c2ccccc32)cc1 (stereo unspecified)
Ans. 95

Qu. Please give the measured growth at 10 µM for this molecule: `c1ccc2c(c1)[nH]c1c(-c3ccc(-c4nccc5c4[nH]c4ccccc45)cc3)nccc12`
Ans. 99.5

Qu. Please give the measured growth at 10 µM for this molecule: Cc1ccc(S(=O)(=O)N2CCc3c([nH]c4ccccc34)C2c2ccc(-c3nc4ccccc4[nH]3)cc2)cc1 (stereo unspecified)
Ans. 79.1
